Values from patent US20210070843A1

- TESTED ON: recombinant H5N1 VN/04 HA trimer (hemagglutinin ectodomain of A/Vietnam/1203/2004) (influenza A virus A/Vietnam/1203/2004 (H5N1))
- PROTOCOL SUMMARY: ELISA, coated HA
ASSAY METRIC: EC50 (µg/mL)
Please respond with the number in µg/mL and leave the unit unwritten.

What the record says about S10 (antibody, V domains shown) VH: EVQLVESGGGLVQPGGSLRLSCAASGFTIGGYGIHWVRQAPGKGLEWVASIGPSWGFTFYADSVKGRFTISADTSKNTAYLQMNSLRAEDTAVYYCARFNWVINGVTDYWGQGTLVTVSS VL: DIQMTQSPSSLSASVGDRVTITCRASQDVSYYVAWYQQKPGKAPKLLIFWSTFLYSGVPSRFSGSGSGTDFTLTISSLQPEDFATYYCQQYYDSPMTFGQGTKVEIKR : EC50 is 0.259
